# assayMethodText: Inhibition of Anopheles gambiae AChE G119S mutant after 10 mins by Ellman assay
outcomeMeasure: IC50

1) CNC(=O)Oc1ccccc1OC(C)C; > 10 µM
2) COP(=O)(OC)OC=C(Cl)Cl; 1.65 µM
3) C[Si](C)(C)c1cccc(C(=O)C(F)(F)F)c1; > 10 µM
4) CC(C)n1cc(C(=O)CF)cn1; > 10 µM
5) CCCC(C)n1cc(C(=O)CF)cn1 (stereo not drawn); > 10 µM
6) CCCC(C)n1cc(C(=O)C(F)F)cn1 (stereo not drawn); 0.797 µM
7) CCC(C)n1cc(C(=O)C(F)(F)F)cn1 (stereo not drawn); 8.18 µM
8) CCC(CC)n1cc(C(=O)CF)cn1; 2.99 µM
9) CC(C)(C)c1cccc(C(=O)CF)c1; > 10 µM
10) CC(C)Cn1cc(C(=O)C(F)(F)F)cn1; > 10 µM
11) CC(C)n1cc(C(=O)C(F)(F)F)cn1; > 10 µM
12) CC(C)Cn1cc(C(=O)C(F)F)cn1; > 10 µM
13) CCC(CC)n1cc(C(=O)C(F)(F)F)cn1; > 10 µM
14) CCC(C)n1cc(C(=O)CF)cn1 (stereo not drawn); > 10 µM
15) CCC(C)n1cc(C(=O)C(F)F)cn1 (stereo not drawn); 0.452 µM
16) O=C(CF)c1cnn(C2CCCC2)c1; > 10 µM
17) CC(C)(C)c1cccc(C(=O)C(F)(F)F)c1; > 10 µM
18) CC(C)Cn1cc(C(=O)CF)cn1; > 10 µM
19) CCC(CC)n1cc(C(=O)C(F)F)cn1; 0.68 µM
20) O=C(c1cnn(C2CCCC2)c1)C(F)(F)F; > 10 µM
21) O=C(c1cnn(C2CCCC2)c1)C(F)F; 3.22 µM
22) CC(C)n1cc(C(=O)C(F)F)cn1; 8.29 µM
23) CCCC(C)n1cc(C(=O)C(F)(F)F)cn1 (stereo not drawn); 19.9 µM

###

# systemName: Acetylcholinesterase (Homo sapiens)
# Sequence (P22303 whole entry): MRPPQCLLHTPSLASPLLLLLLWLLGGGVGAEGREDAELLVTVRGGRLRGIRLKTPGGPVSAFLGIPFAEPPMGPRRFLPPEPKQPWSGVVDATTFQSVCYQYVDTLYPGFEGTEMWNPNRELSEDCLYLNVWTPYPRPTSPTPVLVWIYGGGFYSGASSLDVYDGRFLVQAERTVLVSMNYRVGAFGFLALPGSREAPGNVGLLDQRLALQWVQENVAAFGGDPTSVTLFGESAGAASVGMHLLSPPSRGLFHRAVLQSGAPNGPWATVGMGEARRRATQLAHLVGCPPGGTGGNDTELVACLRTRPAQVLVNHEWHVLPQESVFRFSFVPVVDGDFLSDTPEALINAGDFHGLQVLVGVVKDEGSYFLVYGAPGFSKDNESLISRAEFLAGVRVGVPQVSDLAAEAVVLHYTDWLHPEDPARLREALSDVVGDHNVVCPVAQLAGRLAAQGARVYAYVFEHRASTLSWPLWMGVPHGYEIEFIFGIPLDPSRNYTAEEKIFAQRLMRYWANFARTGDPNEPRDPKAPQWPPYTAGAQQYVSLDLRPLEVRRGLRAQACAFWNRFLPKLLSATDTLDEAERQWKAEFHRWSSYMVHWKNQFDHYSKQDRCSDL
# assayMethodText: Inhibition of recombinant human AChE after 60 mins by Ellman assay
I'd appreciate it if you marked entries rule met when IC50 is lower than 700 nM and rule not met when it is not.

1. CCCC(C)n1cc(C(=O)C(F)(F)F)cn1 (stereo unspecified); rule met
2. CCC(C)n1cc(C(=O)C(F)(F)F)cn1 (stereo unspecified); rule met
3. CC(C)Cn1cc(C(=O)CF)cn1; rule not met
4. O=C(c1cnn(C2CCCC2)c1)C(F)(F)F; rule met
5. CC(C)n1cc(C(=O)C(F)(F)F)cn1; rule met
6. CCC(C)n1cc(C(=O)CF)cn1 (stereo unspecified); rule not met
7. CCCC(C)n1cc(C(=O)CF)cn1 (stereo unspecified); rule not met
8. CCCC(C)n1cc(C(=O)C(F)F)cn1 (stereo unspecified); rule met
9. O=C(c1cnn(C2CCCC2)c1)C(F)F; rule met
10. CC(C)(C)c1cccc(C(=O)C(F)(F)F)c1; rule met
11. CC(C)n1cc(C(=O)C(F)F)cn1; rule not met
12. CNC(=O)Oc1ccccc1OC(C)C [PROPOXUR]; rule met
13. CC(C)n1cc(C(=O)CF)cn1; rule not met
14. CCC(CC)n1cc(C(=O)C(F)F)cn1; rule met
15. CCC(C)n1cc(C(=O)C(F)F)cn1 (stereo unspecified); rule met
16. CC(C)Cn1cc(C(=O)C(F)F)cn1; rule not met
17. CCC(CC)n1cc(C(=O)C(F)(F)F)cn1; rule met
18. CC(C)Cn1cc(C(=O)C(F)(F)F)cn1; rule met
19. C[Si](C)(C)c1cccc(C(=O)C(F)(F)F)c1; rule met
20. CCC(CC)n1cc(C(=O)CF)cn1; rule not met
21. O=C(CF)c1cnn(C2CCCC2)c1; rule not met

Reference source: ChEMBL document CHEMBL3621126
